# assaySystem: CDK12 wt/CycK (Homo sapiens (Human), UniProt Q9NYV4)
# Sequence (Q9NYV4 whole entry): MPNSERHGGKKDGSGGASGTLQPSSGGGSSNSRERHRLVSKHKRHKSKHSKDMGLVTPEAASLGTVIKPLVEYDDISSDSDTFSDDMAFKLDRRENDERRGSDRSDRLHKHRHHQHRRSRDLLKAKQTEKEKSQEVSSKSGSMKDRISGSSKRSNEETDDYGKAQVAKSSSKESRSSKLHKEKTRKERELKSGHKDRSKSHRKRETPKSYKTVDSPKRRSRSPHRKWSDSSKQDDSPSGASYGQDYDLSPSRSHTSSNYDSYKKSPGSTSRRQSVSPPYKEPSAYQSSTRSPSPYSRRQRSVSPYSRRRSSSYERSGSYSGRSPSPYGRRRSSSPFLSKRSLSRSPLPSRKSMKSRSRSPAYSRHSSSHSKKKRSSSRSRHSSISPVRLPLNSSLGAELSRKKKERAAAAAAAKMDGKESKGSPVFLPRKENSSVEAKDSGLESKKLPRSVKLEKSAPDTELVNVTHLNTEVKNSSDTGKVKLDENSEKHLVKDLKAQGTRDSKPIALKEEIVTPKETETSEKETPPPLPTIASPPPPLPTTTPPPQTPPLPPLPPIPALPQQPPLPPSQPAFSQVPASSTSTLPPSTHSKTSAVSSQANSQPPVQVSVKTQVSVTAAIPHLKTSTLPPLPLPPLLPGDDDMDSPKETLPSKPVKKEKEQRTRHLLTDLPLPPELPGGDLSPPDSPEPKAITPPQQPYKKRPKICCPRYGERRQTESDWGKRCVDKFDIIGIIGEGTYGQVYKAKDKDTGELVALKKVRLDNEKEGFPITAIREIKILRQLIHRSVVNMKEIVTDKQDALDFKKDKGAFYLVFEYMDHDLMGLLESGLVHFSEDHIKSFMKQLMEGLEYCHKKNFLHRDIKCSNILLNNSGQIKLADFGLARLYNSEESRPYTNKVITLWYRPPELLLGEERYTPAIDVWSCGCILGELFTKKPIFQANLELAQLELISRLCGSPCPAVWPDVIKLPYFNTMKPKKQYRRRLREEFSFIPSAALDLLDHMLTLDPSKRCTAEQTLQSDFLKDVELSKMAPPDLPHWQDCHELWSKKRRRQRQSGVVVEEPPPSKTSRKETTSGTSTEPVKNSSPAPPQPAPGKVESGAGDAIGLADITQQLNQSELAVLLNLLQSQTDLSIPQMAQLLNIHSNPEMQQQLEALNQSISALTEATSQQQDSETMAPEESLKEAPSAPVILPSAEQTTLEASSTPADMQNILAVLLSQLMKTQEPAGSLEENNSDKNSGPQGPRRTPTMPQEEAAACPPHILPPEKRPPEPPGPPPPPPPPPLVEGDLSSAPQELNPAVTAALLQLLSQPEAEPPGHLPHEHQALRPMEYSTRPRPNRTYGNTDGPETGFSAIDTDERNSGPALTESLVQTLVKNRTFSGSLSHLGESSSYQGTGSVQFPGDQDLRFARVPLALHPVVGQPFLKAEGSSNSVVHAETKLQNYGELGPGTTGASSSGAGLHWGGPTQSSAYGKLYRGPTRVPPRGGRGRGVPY
# Sequence (O75909 whole entry partner): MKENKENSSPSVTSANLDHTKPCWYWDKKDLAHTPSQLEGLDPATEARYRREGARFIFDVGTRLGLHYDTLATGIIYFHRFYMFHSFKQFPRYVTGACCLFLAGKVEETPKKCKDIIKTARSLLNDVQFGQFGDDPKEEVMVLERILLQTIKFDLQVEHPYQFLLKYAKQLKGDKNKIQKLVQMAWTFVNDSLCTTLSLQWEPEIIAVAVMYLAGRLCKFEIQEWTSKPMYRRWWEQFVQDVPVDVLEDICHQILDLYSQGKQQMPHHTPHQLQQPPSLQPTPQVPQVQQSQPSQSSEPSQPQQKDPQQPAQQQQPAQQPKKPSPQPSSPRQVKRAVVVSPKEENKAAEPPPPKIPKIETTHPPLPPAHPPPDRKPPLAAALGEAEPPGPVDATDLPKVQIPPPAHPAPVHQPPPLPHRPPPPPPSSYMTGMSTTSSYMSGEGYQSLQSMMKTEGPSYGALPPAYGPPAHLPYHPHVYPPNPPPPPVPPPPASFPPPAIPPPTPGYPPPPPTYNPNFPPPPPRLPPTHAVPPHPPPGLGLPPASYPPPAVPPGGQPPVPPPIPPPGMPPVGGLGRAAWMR
# testDescription: Radiometric protein kinase assay (33PanQinase), Assay Condition A (thiol containing)
# measurementSetup: thiol containing (1.2 mM DTT), ATP 0.3 μM
measurementLabel: IC50

1) C=CC(=O)Nc1ccc(C(=O)N2CC[C@@H](Nc3ncc4ccc(OC)cc4n3)C2)cc1 [Example 34] | ≤ 100 nM
2) C=C(CC)C(=O)Nc1ccc(C(=O)N2CC[C@@H](Nc3ncc4ccccc4n3)C2)cc1 [Example 94] | 100 to 1000 nM
3) C=CC(=O)Nc1ccc(C(=O)N2C[C@H](Nc3ncc4ccccc4n3)[C@@H](F)C2)cc1 [Example 63] | 100 to 1000 nM
4) C=CC(=O)Nc1ccc(C(=O)N2CC[C@@H](Nc3ncc4ccccc4n3)C2)cc1F [Example 62] | ≤ 100 nM
5) C=CC(=O)Nc1ccc(C(=O)N2CC[C@@H](Nc3ncc4ccc(C)cc4n3)C2)cc1 [Example 32] | ≤ 100 nM
6) CCC(=O)Nc1ccc(C(=O)N2CCC[C@@H](Nc3ncc4ccccc4n3)C2)cc1 [Example 17] | 30000 to 100000 nM
7) C=CC(=O)Nc1ccc(C(=O)N2CC[C@@H](Nc3ncc4cc(C)ccc4n3)C2)cc1 [Example 30] | 100 to 1000 nM
8) CCC(=O)Nc1ccc(C(=O)N2CC[C@@H](Nc3ncc4ccc(C#N)cc4n3)C2)cc1 [Example 55] | 100 to 1000 nM
